Test: Pharmacokinetics in female BALB/c nude mice bearing A375 xenografts, 1 day dosing (PK and PD study): plasma, tumor and brain concentrations, AUC
Type: in vivo
Conditions: mouse, tumor, po, 1 mg/kg, 1 mg/kg p.o. TID × 1 day; post 3rd dose; 48 h; read-out: Mean Concentration in Tumor ± SEM
ENDPOINT: concentration at 48 h
Number first, unit second: that is the form wanted.

Recorded concentration at 48 h (compound CCN(C)S(=O)(=O)Nc1ccc(F)c(Oc2ccc3ncn(C4CC5(CCN(C6CC7(C6)CN(c6cc8c(cc6F)c(N6CCC(=O)NC6=O)nn8C)C7)CC5)C4)c(=O)c3c2)c1C#N (stereo not shown) ): 8.07 ng/g

###

Experiment: Pharmacokinetics after 21 days dosing in the efficacy study (plasma, tumor and brain concentrations; plasma AUC at steady state), Example 14
Type: in vivo, female BALB/c nude mice
Conditions: mouse, plasma, po; 10 mg/kg p.o. BID x 21 days; 24 h; mean ± SEM; read-out: Concentration in Plasma
ENDPOINT: concentration at 24 h (ng/mL)
Give bare numbers, in ng/mL.

Recorded concentration at 24 h (compound CCN(C)S(=O)(=O)Nc1ccc(F)c(Oc2ccc3ncn([C@H]4COC5(CCN(C6CC7(C6)CN(c6cc8c(cc6F)c(N6CCC(=O)NC6=O)nn8C)C7)CC5)C4)c(=O)c3c2)c1C#N [Compound 26] ): 273

###

Target: BRAF V600E (Homo sapiens, UniProt P15056+Q96SW2, V600E)
Construct: knock-in of the HiBiT tag to the endogenous BRAF V600E locus; host or cells: A375.10 (A375 clonal line, CRISPR HiBiT knock-in at the endogenous BRAF V600E locus)
Sequence (P15056 whole entry V600E): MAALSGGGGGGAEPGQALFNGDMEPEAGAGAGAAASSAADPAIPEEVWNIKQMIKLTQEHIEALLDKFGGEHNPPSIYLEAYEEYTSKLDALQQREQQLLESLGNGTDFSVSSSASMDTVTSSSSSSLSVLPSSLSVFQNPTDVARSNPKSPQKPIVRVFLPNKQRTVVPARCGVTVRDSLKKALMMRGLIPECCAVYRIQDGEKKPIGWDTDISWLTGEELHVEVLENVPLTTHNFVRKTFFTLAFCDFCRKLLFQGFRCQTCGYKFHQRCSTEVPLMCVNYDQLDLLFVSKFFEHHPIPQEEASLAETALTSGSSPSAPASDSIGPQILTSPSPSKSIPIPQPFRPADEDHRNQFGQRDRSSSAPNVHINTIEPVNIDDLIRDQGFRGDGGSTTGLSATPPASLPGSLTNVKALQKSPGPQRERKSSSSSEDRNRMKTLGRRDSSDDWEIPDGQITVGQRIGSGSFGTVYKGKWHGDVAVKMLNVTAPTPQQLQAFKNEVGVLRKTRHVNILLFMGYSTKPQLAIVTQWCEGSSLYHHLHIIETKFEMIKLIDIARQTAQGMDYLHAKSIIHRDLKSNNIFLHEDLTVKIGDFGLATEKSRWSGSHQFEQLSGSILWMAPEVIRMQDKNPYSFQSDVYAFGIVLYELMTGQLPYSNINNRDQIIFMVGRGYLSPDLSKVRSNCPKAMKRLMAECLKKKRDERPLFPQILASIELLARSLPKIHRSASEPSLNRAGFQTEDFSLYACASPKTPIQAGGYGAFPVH
Sequence (Q96SW2 whole entry): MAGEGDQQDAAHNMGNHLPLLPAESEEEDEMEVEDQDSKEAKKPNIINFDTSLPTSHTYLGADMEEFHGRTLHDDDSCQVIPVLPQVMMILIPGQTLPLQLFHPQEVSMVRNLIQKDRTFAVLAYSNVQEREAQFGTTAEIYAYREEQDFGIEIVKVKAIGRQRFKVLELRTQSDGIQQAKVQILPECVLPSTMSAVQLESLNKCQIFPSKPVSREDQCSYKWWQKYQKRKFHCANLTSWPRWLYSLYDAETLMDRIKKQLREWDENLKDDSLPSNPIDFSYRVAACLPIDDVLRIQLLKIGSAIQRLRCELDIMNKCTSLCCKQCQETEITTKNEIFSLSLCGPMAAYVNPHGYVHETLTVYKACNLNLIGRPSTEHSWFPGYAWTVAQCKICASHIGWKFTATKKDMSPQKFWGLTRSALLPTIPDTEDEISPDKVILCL
Sequence (Q16531 whole entry partner): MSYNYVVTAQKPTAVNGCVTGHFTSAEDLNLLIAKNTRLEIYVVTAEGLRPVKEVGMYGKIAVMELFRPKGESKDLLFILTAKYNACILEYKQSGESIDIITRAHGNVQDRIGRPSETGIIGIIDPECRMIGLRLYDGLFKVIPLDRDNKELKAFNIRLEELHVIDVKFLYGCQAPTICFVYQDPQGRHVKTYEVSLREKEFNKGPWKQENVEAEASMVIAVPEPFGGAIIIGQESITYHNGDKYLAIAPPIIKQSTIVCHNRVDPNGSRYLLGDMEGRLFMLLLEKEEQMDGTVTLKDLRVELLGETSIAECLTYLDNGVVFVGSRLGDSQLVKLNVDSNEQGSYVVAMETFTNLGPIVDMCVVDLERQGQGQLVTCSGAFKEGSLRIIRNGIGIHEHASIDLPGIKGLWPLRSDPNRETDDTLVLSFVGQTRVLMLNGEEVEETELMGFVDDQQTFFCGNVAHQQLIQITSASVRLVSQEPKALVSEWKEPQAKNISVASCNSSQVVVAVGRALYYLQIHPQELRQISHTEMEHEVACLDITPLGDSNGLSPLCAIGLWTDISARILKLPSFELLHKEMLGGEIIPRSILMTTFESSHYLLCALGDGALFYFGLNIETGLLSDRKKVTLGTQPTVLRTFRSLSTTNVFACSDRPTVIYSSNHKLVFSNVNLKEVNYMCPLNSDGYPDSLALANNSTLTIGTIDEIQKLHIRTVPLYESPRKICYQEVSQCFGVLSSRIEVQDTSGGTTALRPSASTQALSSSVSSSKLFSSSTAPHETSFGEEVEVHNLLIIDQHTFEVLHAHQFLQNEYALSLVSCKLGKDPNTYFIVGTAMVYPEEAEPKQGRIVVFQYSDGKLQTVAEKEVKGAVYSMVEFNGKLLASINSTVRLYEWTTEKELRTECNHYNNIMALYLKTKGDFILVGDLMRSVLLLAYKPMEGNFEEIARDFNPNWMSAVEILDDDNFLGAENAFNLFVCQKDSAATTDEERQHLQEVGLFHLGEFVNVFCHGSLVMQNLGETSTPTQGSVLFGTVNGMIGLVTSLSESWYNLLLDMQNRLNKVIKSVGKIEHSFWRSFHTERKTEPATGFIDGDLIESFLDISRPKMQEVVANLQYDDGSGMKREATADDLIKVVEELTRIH
Experiment: BRAF V600E HiBiT Degradation Assay
Format: cell-based
Settings: A375.10 cells, BRAF V600E, 2 hours; read-out: HiBiT-Degradation A375.10 BRAF 2 hours DC50
Could you please report measured DC50 for the items listed next?

# count of solved cases: 2
CCN(C)S(=O)(=O)Nc1ccc(F)c(Oc2ccc3ncn([C@H]4COC5(CCC(N6CCC(c7cc8c(cc7F)c(N7CCC(=O)NC7=O)nn8C)C(F)(F)C6)CC5)C4)c(=O)c3c2)c1C#N (single isomer, unassigned) [Compound 38] = < 1000 nM
CCN(C)S(=O)(=O)Nc1ccc(F)c(Oc2ccc3ncn(C4CC5(CCN(C6CCC(c7ccc(NC8CCC(=O)NC8=O)cc7F)CC6)CC5)C4)c(=O)c3c2)c1F (single isomer, unassigned) [Compound 167] = > 10000 nM

Quick batch: DC50 for everything below.
1. CCN(C)S(=O)(=O)Nc1ccc(F)c(Nc2ccc3ncn([C@H]4COC5(CCN(C6CCC(c7ccc(NC8CCC(=O)NC8=O)cc7F)CC6)CC5)C4)c(=O)c3c2)c1C#N (single isomer, unassigned) [Compound 57]
2. CCN(C)S(=O)(=O)Nc1ccc(F)c(Oc2ccc3ncn([C@@H]4C[C@@H]5CN(C6CCC(c7ccc(NC8CCC(=O)NC8=O)cc7F)CC6)C[C@@H]5C4)c(=O)c3c2)c1C#N (single isomer, unassigned)

Completion:
1. < 1000 nM
2. < 1000 nM

###

Could you please report measured Emax for the items listed next?
Target: BRAF V600E (Homo sapiens, UniProt P15056+Q96SW2, V600E)
Construct: knock-in of the HiBiT tag to the endogenous BRAF V600E locus; host or cells: A375.10 (A375 clonal line, CRISPR HiBiT knock-in at the endogenous BRAF V600E locus)
Assay: BRAF V600E HiBiT Degradation Assay
Format: cell-based
Conditions: A375.10 cells, BRAF V600E, 2 hours; residual protein remaining; read-out: HiBiT-Degradation A375.10 BRAF 2 hours Emax

CN(CCO)S(=O)(=O)Nc1ccc(F)c(Oc2ccc3ncc([C@@H]4COC5(CCN(C6CCC(c7cc8c(cc7F)c(N7CCC(=O)NC7=O)nn8C)CC6)CC5)C4)nc3c2)c1C#N (single isomer, unassigned) [Compound 174] = < 50%

Now look at this entry.
Recorded Emax (molecule CCN(C)S(=O)(=O)Nc1ccc(F)c(Oc2ccc3ncn([C@@H]4CO[C@]5(CCN(C6CCC(c7cc8c(cc7F)c(N7CCC(=O)NC7=O)nn8C)CC6)C5)C4)c(=O)c3c2)c1C#N (single isomer, unassigned) [Compound 290] ): 50 to 90%
